# key: entry, value: Relative activity
Tested on: Plasmodium falciparum
procedure_summary: Relative activity against Plasmodium falciparum D6 (Sierra Leone) compared to artemisinin
Type: functional
measurement_type: Relative activity

| compound | subject_of_test | reading |
| --- | --- | --- |
| CCCC[C@H]1C(=O)O[C@@H]2O[C@@]3(C)CC[C@H]4[C@H](C)CC[C@@H]1[C@@]24OO3 | Plasmodium falciparum | 0.96 |
| CCCCCCCCCCCCCC[C@H]1C(=O)O[C@@H]2O[C@@]3(C)CC[C@H]4[C@H](C)CC[C@@H]1[C@@]24O3 | Plasmodium falciparum | 0.05 |
| C[C@@H]1CC[C@H]2CC(=O)O[C@@H]3O[C@@]4(C)CC[C@@H]1[C@@]23OO4 | Plasmodium falciparum | 1.8 |
| CC(C)CCC[C@H]1C(=O)O[C@@H]2O[C@@]3(C)CC[C@H]4[C@H](C)CC[C@@H]1[C@@]24OO3 | Plasmodium falciparum | 0.31 |
| CCCCC[C@H]1C(=O)O[C@@H]2O[C@@]3(C)CC[C@H]4[C@H](C)CC[C@@H]1[C@@]24OO3 | Plasmodium falciparum | 3.67 |
| CC[C@H]1C(=O)O[C@@H]2O[C@@]3(C)CC[C@H]4[C@H](C)CC[C@@H]1[C@@]24OO3 | Plasmodium falciparum | 6.42 |
| C[C@@H]1CC[C@H]2[C@@H](CCc3ccccc3)C(=O)O[C@@H]3O[C@@]4(C)CC[C@@H]1[C@]32OO4 | Plasmodium falciparum | 1.69 |
| C[C@@H]1CC[C@H]2[C@@H](C)C(=O)O[C@@H]3O[C@@]4(C)CC[C@@H]1[C@]32OO4 | Plasmodium falciparum | 1 |
| O=C1C=C2CCCC3CC4OO[C@@]23[C@H](O1)O4 (single isomer, unassigned) | Plasmodium falciparum | 0.02 |
| CCCCCC[C@H]1C(=O)O[C@@H]2O[C@@]3(C)CC[C@H]4[C@H](C)CC[C@@H]1[C@@]24OO3 | Plasmodium falciparum | 4.67 |
| C[C@@H]1CC[C@H]2[C@@H](CCCCc3ccccc3)C(=O)O[C@@H]3O[C@@]4(C)CC[C@@H]1[C@]32OO4 | Plasmodium falciparum | 1.37 |
| C[C@@H]1CC[C@H]2[C@@H](CCCc3ccccc3)C(=O)O[C@@H]3O[C@@]4(C)CC[C@@H]1[C@]32OO4 | Plasmodium falciparum | 6.11 |
| CC(C)[C@H]1C(=O)O[C@@H]2O[C@@]3(C)CC[C@H]4[C@H](C)CC[C@@H]1[C@@]24OO3 | Plasmodium falciparum | 2.03 |
| C[C@@H]1CC[C@H]2[C@H](C)C(=O)O[C@@H]3O[C@@]4(C)CC[C@@H]1[C@]32OO4 | Plasmodium falciparum | 0.14 |
| CC(C)CC[C@H]1C(=O)O[C@@H]2O[C@@]3(C)CC[C@H]4[C@H](C)CC[C@@H]1[C@@]24OO3 | Plasmodium falciparum | 1.57 |
| C/C=C/CC1C(=O)O[C@@H]2O[C@@]3(C)CC[C@H]4[C@H](C)CC[C@@H]1[C@@]24OO3 (single isomer, unassigned) | Plasmodium falciparum | 0.38 |

====

# key: entry, value: Relative activity
System: Plasmodium falciparum
procedure_summary: In vitro relative potency against Plasmodium falciparum Sierra Leone D6
Format: functional

| smiles_text | Relative activity |
| --- | --- |
| C[C@@H]1CC[C@H]2[C@@H](C)C(=O)O[C@@H]3OC(C)(C)OO[C@@]32[C@H]1C | 0.4 |
| CC1(C)OO[C@]23CCCC[C@H]2CC(=O)O[C@@H]3O1 | 0.01 |
| C[C@@H]1CC[C@H]2[C@](C)(Br)[C@@H](Nc3nccs3)O[C@@H]3O[C@@]4(C)CC[C@@H]1[C@]32OO4 | 0.62 |
| C[C@@H]1CC[C@H]2[C@](C)(Br)[C@@H](Nc3ccccc3)O[C@@H]3O[C@@]4(C)CC[C@@H]1[C@]32OO4 | 0.16 |
| C[C@@H]1CCC[C@@]23CO[C@@](C)(CC[C@@H]12)OO3 | 0.37 |
| C[C@@H]1CC[C@H]2[C@](C)(Br)[C@@H](Nc3cccc(F)c3)O[C@@H]3O[C@@]4(C)CC[C@@H]1[C@]32OO4 | 3.5 |
